system: MDA-MB-468 breast; experiment: NCI tumour cell line growth inhibition, 48 h; in the data active = GI50 below about 0.43 µM; inactive = the rest
Labels: active, inactive

COMPOUND	CLASS_NAME
COc1ccc2c(c1)C(C)Cc1c(ncnc1-n1c(C)nc3ccccc31)N2C (stereo unspecified)	inactive
C[C@]12CC[C@@H]3c4ccc(O)cc4CC[C@H]3[C@@H]1CC[C@@H]2NS(=O)(=O)c1cccc(F)c1	inactive
COc1cc(C2=C(c3cn(C)c4ccccc34)COC2=O)cc(OC)c1OC	active
CN(CCCNC(=O)Cc1ccc2ccc3cccc4ccc1c2c34)CCCNc1cc(-c2ccc3ccccc3c2)nc2ccccc12	inactive
O=C(/C=C/c1cc(CN2CCOCC2)c(O)c2ncccc12)c1cc(CN2CCOCC2)c(O)c2ncccc12	active
Cc1ccc(S(=O)(=O)NCCNc2nccc(-c3c(-c4ccc(F)cc4)nc4sccn34)n2)cc1	inactive
